# procedure_text: NCI Yeast Anticancer Drug Screen. Data for the bub3 strain (AID 167)
# assay_setup: S. cerevisiae bub3 mutant strain, at 50.0 µM, active compounds read high
This is part of a sample that, as a whole, favours compounds with a hit. Of some 79,000 tested, about 15% had one in any assay.
# growth inhibition listing for each entry below

compound	growth inhibition, %
CCOC(CCNCC(OCC)OCC)OCC	-4.8
CC(CCc1cccc2ccccc12)C(=O)O (stereo unspecified)	30.3
N#CCN1CCOCCOCCN(CC#N)CCOCCOCC1	7.4
CC(=N\NS(=O)(=O)c1ccc(C)cc1)/C(C)=N/NS(=O)(=O)c1ccc(C)cc1	0.95
OCc1c(-c2ccc(Cl)cc2)c(-c2ccc(Cl)cc2)c2n1CCC2	-2.35
O=C(O)CC(=O)Nc1cc([N+](=O)[O-])ccc1OCc1ccccc1	5.7
